experiment: Confirmatory qHTS for Inhibitors of ATXN expression; settings: ATXN2-luciferase reporter cells, luminescence, 24 h; series mostly up to 11.5 µM; also: nearly all actives have a fitted effect of over 65% in size
Hit rate of the full screen: of about 2,100 compounds, about 940 (45%) were called active. Inconclusive results (about 48%) are left out. Calls follow the shape of the dose curve; as a rule, active = well fitted inhibition curve with a large enough effect; inconclusive = small, poorly fitted or top-dose-only effect; inactive = no such curve, though single readings can be large or run the other way. So high a share suggests a set chosen from earlier hits. The list shows a part of the results.
Would you mind answering with one of these outcomes? 1 (yes) = active, 0 (no) = inactive

compound	discrete label
Cc1cc(C)cc(NC(=O)CCc2nc3sc4c(c3c(=O)[nH]2)CCCC4)c1	1 (yes)
CCc1nc2ccccc2c(C(=O)OCC(=O)Nc2ccc(NC(C)=O)cc2)c1C	0 (no)
CCOC(=O)C1CCN(c2ncnc3c2cnn3-c2ccc(Cl)cc2)CC1	1 (yes)
CCN(CC)CCNC1=NCCn2c1cc1cc(OC)ccc12	1 (yes)

Would you mind telling me which call this test gave O=C(Nc1ccccc1Cl)N1CCCN(c2nc(-c3ccccc3)ns2)CC1 ?
1 (yes)

Hi, do you know how Cc1ccc2[nH]c(O)c(N=NC(=O)C3CC3c3ccccc3)c2c1Br (stereo unspecified) came out in this test?
0 (no)

What classification did O=c1c(O)c(-c2ccccc2)oc2ccccc12 end up with in this test?
0 (no)

Status in this test for O=C(CNC(=O)c1ccccc1F)N/N=C/c1cc(Br)ccc1OC(=O)/C=C/c1ccco1 ?
1 (yes)

# outcome recorded in this test, key = O=C(N/N=C/c1cc(Br)ccc1OC(=O)c1ccc(Br)cc1)c1ccncc1
1 (yes)

Which result was noted for this compound in the test: O=C(CNC(=O)c1ccc(F)cc1)N/N=C/c1cc(Br)ccc1OC(=O)/C=C/c1ccco1
1 (yes)

Would you mind telling me which call this test gave CC(C)CC(=NNC(=O)c1ccncc1)c1cc(Cl)ccc1O ?
1 (yes)

Write down the call the test reported for this compound. Item: COc1ccc(O)c(/C=N/NC(=O)c2ccc(CSc3nc(C)cc(C)n3)cc2)c1
1 (yes)

Outcome? Cc1c(OCC(=O)NC2CC(C)(C)NC(C)(C)C2)ccc2c1oc(=O)c1ccccc12
1 (yes)

Name the outcome recorded for FC(F)(F)c1nc(-c2cccs2)ncc1-c1nnnn1-c1ccc(Cl)cc1 in the assay.
1 (yes)

Would you mind telling me which call this test gave CC(C)C(=O)NC(c1cccc([N+](=O)[O-])c1)c1ccc2cccnc2c1O (stereo unspecified) ?
1 (yes)

Dear colleague, could you share the recorded outcome for Cc1ccc(-c2nc3ccc(Cl)cn3c2CC(C)(C)C)cc1 when you have a moment?
0 (no)

I'd appreciate the recorded outcome for Cc1cc(C)c2nc(N3CCCC(C(=O)N4CCN(c5ncccn5)CC4)C3)sc2c1 (stereo unspecified) from this test.
1 (yes)

----------
test: Confirmatory qHTS for Inhibitors of ATXN expression; details: ATXN2-luciferase reporter cells, luminescence, 24 h; series mostly up to 11.5 µM; also: nearly all actives have a fitted effect of over 65% in size; also: potency is read from the fitted curve at half-maximal effect
Among all 2,100 compounds or so, about 940 (45%) were called active. Another 48% or so got no clear call; they are omitted. So high a share suggests a set chosen from earlier hits. Some of the results follow.
quantity: Potency

Answered examples (5):
molecule	Potency
O=C(CNc1ccc(F)cc1)N/N=C/c1c(O)ccc2ccccc12	3.16 µM (active)
CC(=O)NC(c1ccc(C(C)C)cc1)c1ccc2cccnc2c1O (stereo unspecified)	0.631 µM (active)
O=C(CSCC(=O)Nc1ccccc1)N/N=C/c1c(O)ccc2ccccc12	0.708 µM (active)
CCc1sc(C(=O)Nc2nc(-c3ccccn3)cs2)cc1C	8.91 µM (active)
COc1cc(NC(=O)c2cccc3c(-c4cccnc4)coc23)cc(OC)c1OC	3.55 µM (active)

Lab note: next molecule to report on.
Return value of Potency for input N#C/C(=C\C=C\c1ccccc1[N+](=O)[O-])C(=O)NCc1ccccc1 , no commentary.
2.82 µM (active)

----------
assay: Confirmatory qHTS for Inhibitors of ATXN expression; settings: ATXN2-luciferase reporter cells, luminescence, 24 h; series mostly up to 11.5 µM; also: nearly all actives have a fitted effect of over 65% in size; also: potency is read from the fitted curve at half-maximal effect
Screen size: about 2,100 compounds; about 940 (45%) were called active. Inconclusive results (about 48%) are left out. The set was probably picked from earlier hits. The list shows a part of the results.
Entries and their Potency

Some solved entries appear below for comparison.
molecule smiles	Potency
COc1ccc(CNCC(O)(c2ccc(Cl)cc2)c2ccc(Cl)cc2)cc1OC	3.16 µM (active)
Cc1ccc(/C=N/NC(=O)C2=NNC(c3ccccc3)(c3ccccc3)C2)c(O)c1	2.82 µM (active)
COc1ccc(/C(C)=N/NC(=O)c2cccc(S(=O)(=O)N3CCCC3)c2)c(O)c1	3.55 µM (active)

Next compound, Potency to be filled in.
Give the reported Potency for this compound. COc1cc(C=CC(=O)c2cc(OC)c(OC)c(OC)c2)cc(OC)c1OC
8.91 µM (active)

----------
test: Confirmatory qHTS for Inhibitors of ATXN expression; settings: ATXN2-luciferase reporter cells, luminescence, 24 h; series mostly up to 11.5 µM; also: nearly all actives have a fitted effect of over 65% in size
Screen size: about 2,100 compounds; about 940 (45%) were called active. Not shown: some 48% with an inconclusive outcome. Calls follow the shape of the dose curve; as a rule, active = well fitted inhibition curve with a large enough effect; inconclusive = small, poorly fitted or top-dose-only effect; inactive = no such curve, though single readings can be large or run the other way. The set was probably picked from earlier hits. The list shows a part of the results.
Output constraint: value belongs to t for active, f for inactive

Per the records of this test, what outcome belongs to O=C(N/N=C/c1c(O)n(Cc2ccccc2)c(=O)c2ccccc12)c1cccnc1 ?
t

// param item: CCOC(=O)COc1ccc(Br)cc1/C=C/c1[nH]c(=O)[nH]c(=O)c1[N+](=O)[O-] ; yields the recorded call
f

Hi, sorry to bother you, what did the test record for CN(C)CCNCCCNc1c2ccccc2nc2cccc([N+](=O)[O-])c12 ?
t

Lab log entry: CCOC(=O)c1c(SCCN2CCCC2)n(-c2ccccc2)c(=S)n(-c2ccccc2)c1=O — outcome as called in the assay?
t

Assay outcome for CSc1ncnc2c1ncn2CC(=O)C1CCC2C3CCC4=CC(=O)CCC4(C)C3CCC12C (stereo not given) : what was it?
t

// param item: CCOC(=O)c1c(SCCN2CCCCC2)n(-c2ccccc2)c(=S)n(-c2ccccc2)c1=O ; yields the recorded call
t

Can you look up the reported call for CCCOc1ccc(C(=O)C(CN2CCOCC2)c2ccccc2)cc1 (stereo not given) for me?
t

What is the recorded call for this molecule in the test? CC(=O)N1CCCc2cc(S(=O)(=O)N3CCCC(C(=O)N4CCN(c5cc(C)ccc5C)CC4)C3)ccc21 (stereo not given)
t

So what was the verdict on CCCCCn1c(=O)c2ccccc2n2c(CCl)nnc12 in this test?
t

What call does the record list for Cn1c(=O)c2cc(NC(=O)Nc3cccnc3)ccc2n1Cc1ccc(Cl)cc1 ?
f

----------
assay: Confirmatory qHTS for Inhibitors of ATXN expression; details: ATXN2-luciferase reporter cells, luminescence, 24 h; series mostly up to 11.5 µM; also: nearly all actives have a fitted effect of over 65% in size
Screen size: about 2,100 compounds; about 940 (45%) were called active. Not shown: some 48% with an inconclusive outcome. Calls come from the whole dose curve; as a rule, active = well fitted inhibition curve with a large enough effect; inconclusive = small, poorly fitted or top-dose-only effect; inactive = no such curve, though single readings can be large or run the other way. So high a share suggests a set chosen from earlier hits. This is one part of the list.
API: response.call in active, inactive

Completed entries (count: 10):
compound	discrete label
O=C(N/N=C/c1cc(Br)ccc1O)C(c1ccncc1)N1CCOCC1 (stereo unspecified)	active
Cc1cc(Oc2ccc(Cl)cc2)nc(-c2ccccn2)n1	inactive
O=c1nc(N/N=C/c2ccccn2)cn[nH]1	active
CCOC(=O)c1ccc2ncc(C(=O)OCC)c(Nc3ccc(N4CCOCC4)cc3)c2c1	active
CCCCC(=O)NC(c1ccc(Cl)cc1)c1ccc2cccnc2c1O (stereo unspecified)	active
Cc1ccc(C)c(NC(=O)c2ccccc2NS(=O)(=O)c2cc([N+](=O)[O-])ccc2C)c1	active
Cc1ccc(S(=O)(=O)NCC(=O)N/N=C/c2ccccc2O)cc1	active
O=S(=O)(c1ccccc1)N1CCN(c2ccnc3cc(Cl)ccc23)CC1	active
O=C(CNS(=O)(=O)c1ccc([N+](=O)[O-])cc1)N/N=C/c1ccc(O)cc1O	active
O=C(OCCN1C(=O)c2cccc3c(N4CCOCC4)ccc(c23)C1=O)c1ccccc1Cl	active

Hi, sorry to bother you, what did the test record for Cc1cc(NC(=O)CSc2nc3c(sc4ccccc43)c(=O)n2CCCN2CCOCC2)n[nH]1 ?
active

Could you check what this test reported for CCOC(=O)c1ccc(N=c2sc(C(=O)OC)cc(=O)n2-c2ccc(C(=O)OCC)cc2)cc1 ?
active

What outcome does the record of this test show for C(=N\Nc1ccc2nncn2n1)/c1ccccn1 ?
active

Record request — test call for O=C(N/N=C/c1cc(Cl)ccc1O)c1ccncc1
active

----------
experiment: Confirmatory qHTS for Inhibitors of ATXN expression; settings: ATXN2-luciferase reporter cells, luminescence, 24 h; series mostly up to 11.5 µM; also: nearly all actives have a fitted effect of over 65% in size
About 940 (45%) of roughly 2,100 compounds were called active. Inconclusive results (about 48%) are left out. Calls follow the shape of the dose curve; as a rule, active = well fitted inhibition curve with a large enough effect; inconclusive = small, poorly fitted or top-dose-only effect; inactive = no such curve, though single readings can be large or run the other way. The set was probably picked from earlier hits. The list shows a part of the results.
Bench note: report the call from active, inactive

Example results:
molecule	discrete label
CCc1nc2ccc(C(=O)Nc3cc(-c4ccccc4)ccc3OC)cn2c1N(CC)CC(=O)N(C)C	active
CCC(=O)NC(c1ccc(OC)c(OC)c1)c1cc(Cl)c2cccnc2c1O (configuration not stated)	active
Oc1c(C(Nc2ccccn2)c2ccccn2)ccc2cccnc12 (configuration not stated)	active
O=C(Nc1nnc(C2CC2)o1)c1ccc(S(=O)(=O)N2CCCc3ccccc32)cc1	active
Cc1ccc(CN2CCC(c3cc(-c4ccc(Cl)cc4)n[nH]3)CC2)cc1	active

API: the following record is the query input.
Record request — test call for CSCc1nnc(NC(=O)c2ccc(S(=O)(=O)N3CCCCC3C)cc2)o1 (configuration not stated)
active
